proteins and their reported kcat/KM
# Study System: Factor X, P00742
# Sequence (P00742 whole entry, looked up): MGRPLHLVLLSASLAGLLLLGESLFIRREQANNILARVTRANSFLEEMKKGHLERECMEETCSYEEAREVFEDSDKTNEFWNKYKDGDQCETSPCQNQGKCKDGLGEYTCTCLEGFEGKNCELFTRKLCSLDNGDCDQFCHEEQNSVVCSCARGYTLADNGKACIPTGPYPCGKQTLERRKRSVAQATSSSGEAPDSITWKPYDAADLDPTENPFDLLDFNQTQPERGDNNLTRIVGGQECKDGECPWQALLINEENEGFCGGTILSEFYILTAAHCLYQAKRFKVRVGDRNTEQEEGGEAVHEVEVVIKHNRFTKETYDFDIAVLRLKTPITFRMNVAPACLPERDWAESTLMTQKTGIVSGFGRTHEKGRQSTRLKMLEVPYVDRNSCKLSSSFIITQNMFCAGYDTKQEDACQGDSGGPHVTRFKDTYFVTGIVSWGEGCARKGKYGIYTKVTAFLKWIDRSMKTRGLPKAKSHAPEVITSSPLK
# output: bare number, implied unit M⁻¹ s⁻¹

Query string: Identify measured kcat/KM associated with FIXa-K228N/I251S/R318Y/R338E/R403E/E410N (protein) chain 1: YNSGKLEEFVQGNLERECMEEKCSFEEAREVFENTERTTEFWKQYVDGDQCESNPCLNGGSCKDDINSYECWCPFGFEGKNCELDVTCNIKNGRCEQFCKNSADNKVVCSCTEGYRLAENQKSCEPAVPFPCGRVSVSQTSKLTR chain 2: VVGGEDAKPGQFPWQVVLNGKVDAFCGGSIVNEKWIVTAAHCVETGVNITVVAGEHNIEETEHTEQKRNVSRIIPHHNYNAAINKYNHDIALLELDEPLVLNSYVTPICIADKEYTNIFLKFGSGYVSGWGRVFHKGYSALVLQYLRVPLVDRATCLESTKFTIYNNMFCAGFHEGGRDSCQGDSGGPHVTEVEGTSFLTGIISWGEECAMKGKYGIYTKVSEYVNWIKNKTKLT
Result string: 2.1e+08

Query string: Look up and report measured kcat/KM for this entry: FIXa-I251S/R318Y/R338E/R403E/E410N (protein) chain 1: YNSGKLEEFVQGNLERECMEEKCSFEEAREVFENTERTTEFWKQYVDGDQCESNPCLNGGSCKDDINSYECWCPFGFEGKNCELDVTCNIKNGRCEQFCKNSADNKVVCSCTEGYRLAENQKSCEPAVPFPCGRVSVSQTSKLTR chain 2: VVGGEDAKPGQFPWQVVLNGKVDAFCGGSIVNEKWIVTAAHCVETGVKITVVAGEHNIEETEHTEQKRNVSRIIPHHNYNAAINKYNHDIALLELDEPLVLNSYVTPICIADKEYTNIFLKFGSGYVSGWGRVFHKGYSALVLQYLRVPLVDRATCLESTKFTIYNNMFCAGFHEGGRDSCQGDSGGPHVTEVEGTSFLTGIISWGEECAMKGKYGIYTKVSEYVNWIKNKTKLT
Result string: 1.5e+08
